Reported TGI by item:
System: OVCAR-8 ovarian
Assay: NCI tumour cell line growth inhibition, 48 h

* [N-]=[N+]=Nc1ccc(CCN2CCN(c3cccc(C(F)(F)F)c3)CC2)cc1I | > 100 µM
* CN1CCN(c2ccc(-c3ccc4ncc(C#N)c(Nc5ccc(F)c(Cl)c5)c4c3)cc2)CC1 | 14.5 µM
* Cc1ccc(NC(=O)CC/C(CC(=O)C(C)(C)C)=N/NC(=O)C(N)=O)cc1C | > 100 µM
* Cc1c(C(=O)CC(=O)C(=O)Nc2c(C(C)C)cccc2C(C)C)[n+](=O)c2ccccc2n1[O-] | 7.38 µM
* CC(N=C(N)N)C(=O)O (stereo not given) | > 100 µM
* N#CNC(N)=NCCO | > 100 µM
* CC1(C)OCC2(CO1)CSCCCSCC1(COC(C)(C)OC1)CSCCCSC2 | > 100 µM
* C=C[C@@H](OCOCC[Si](C)(C)C)[C@@H](CC)OC(CCCOC(=O)C(C)(C)C)OC (stereo not given in full) | > 100 µM

Q) Entry O=S1(=O)NNC(=NCc2ccc(Cl)c(Cl)c2)c2ccccc21 has what TGI?
A) > 100 µM

Q) Entry COc1cccc(C(=O)Nc2ccc(CN3CCc4nc5cc(OC)c(OC)cc5cc43)cc2)c1 has what TGI?
A) > 100 µM

====

Test system: A549 NSCLC
Assay: NCI tumour cell line growth inhibition, 48 h
Reported TGI by item:
API: value field is a number in µM; no unit string.

// below: answered compounds
- C/C=C(\C)c1cc(=O)c2c(C)cc3c(c2o1)C(=O)c1c(O)c(C2CC(C)(N(C)C)C(O)C(C)O2)cc(C2CC(N(C)C)C(O)C(C)O2)c1C3=O (centres undefined): 1.66
- C=C[C@@]1(C)CCC2(O)C(CCC3C2(C)CCC[C@@]3(C)COC(=O)CC(=O)OC)C1 (some centres undefined): 35.9
- C=C1CC(Cn2ccc(=O)[nH]c2=O)(c2ccc(-c3ccccc3)cc2)OC1=O (centres undefined): 24.9
- O=C(CBr)N1CCC2(CC1)SSC1(CCN(C(=O)CBr)CC1)S2: 3.95
- CC1=CC[C@@H]2C(C)(C)C(=O)CC[C@@]2(C)[C@@H]1COc1ccc2ccc(=O)oc2c1: 71.2
- O=S(=O)(C(=Ic1ccccc1)S(=O)(=O)C(F)(F)C(F)(F)C(F)(F)C(F)(F)F)C(F)(F)C(F)(F)C(F)(F)C(F)(F)F: 34.3
- O=[N+]([O-])c1cc([N+](=O)[O-])c(Cl)c(Cl)c1Cl: 13.9

Q) # query: TGI | item O=C1c2cccc3cccc(c23)C(=O)N1CCCNCCCCNCCCN1C(=O)c2cccc3cccc(c23)C1=O | system: A549 NSCLC
A) 0.833

====

Test system: OVCAR-3 ovarian
Experiment: NCI tumour cell line growth inhibition, 48 h; in the data active means GI50 below about 0.43 µM; inactive means the rest
Tick one outcome: active, inactive

Q) Check the results log: what was the call for COc1cc(-c2nn(-c3ccc(NC(=O)Nc4ccc(Cl)c(Cl)c4)cc3)cc2-c2ccncc2)ccc1Cl ?
A) inactive

Q) Check the results log: what was the call for CC1=CC[C@@H]2C(C)(C)C(=O)CC[C@@]2(C)[C@@H]1COc1ccc2ccc(=O)oc2c1 ?
A) inactive

Q) Check the results log: what was the call for CC[C@@]1(OC(=O)CN)C(=O)OCc2c1cc1n(c2=O)Cc2cc3cc4c(cc3nc2-1)OCO4 ?
A) active

Q) Check the results log: what was the call for COc1cc(-c2n/c(=C\c3c(O)[nH]c4ccc(Cl)cc34)cc3c2=Nc2ccccc2-3)cc(OC)c1OC ?
A) active

Q) Check the results log: what was the call for N#CC(C#N)=Cc1c(-c2ccccc2)[nH]c2ccccc12 ?
A) inactive

Q) Check the results log: what was the call for Cc1onc(-c2c(F)cccc2Cl)c1-c1ncc(-c2ccc(Cl)cc2)o1 ?
A) inactive

Q) Check the results log: what was the call for O=C(CCCn1c(=O)c2sc3ccccc3c2n2nnc(-c3ccccc3)c12)NCCc1cnc[nH]1 ?
A) inactive

Q) Check the results log: what was the call for O=S(=O)(Nc1cc(Br)c(O)c2ccccc12)c1ccc(F)cc1 ?
A) inactive

Q) Check the results log: what was the call for COc1cc(/C=N/Nc2ncnc3c2cnn3C(C)C)ccc1O ?
A) inactive

Q) Check the results log: what was the call for Cc1csc(/C=N/NC(=O)c2nnn(-c3ccnc4c(C(F)(F)F)cccc34)c2C)c1 ?
A) inactive
